Assay target: - (UniProt Q15116 25-167)
Sequence (Q15116 25-167): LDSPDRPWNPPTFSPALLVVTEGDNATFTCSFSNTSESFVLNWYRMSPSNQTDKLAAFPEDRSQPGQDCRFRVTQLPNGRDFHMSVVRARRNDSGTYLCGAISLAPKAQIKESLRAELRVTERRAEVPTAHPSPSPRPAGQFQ
Protocol notes: SPR (Biacore T200)
Observed property: Kd (nM)
Write down the numeric answer in nM and omit the unit.

Sample answers from the record:
[
  {
    "Binder": "Variant 3 (scFv, V domains shown) VH: EVQLVESGGGLVQPGGSLRLSCAASGFTFSSYTMSWVRQAPGKGLEWVSYISHGGGDTYYADSVKGRFTISRDNSKNTLYLQMNSLRAEDTAVYYCARHSGYERGYYYVMDYWGQGTLVTVSS VL: DIQLTQSPDSLSVSLGERATINCKASESVDYYGFSFLNWFQQKPGQPPKLLIYAASNRQSGVPDRFSGSGSGTDFTLTISSLQAEDVAVYFCQQSKEVPWTFGQGTKLEIKR",
    "Observed property": "Kd",
    "Value reported": 5.6
  },
  {
    "Binder": "Variant 6 (scFv, V domains shown) VH: EVQLVESGGGLVQPGGSLRLSCAASGFTFSSYTMSWVRQAPGKGLEWVSYISHGGGDTYYPDSVKGRFTISRDNSKNTLYLQMNSLRAEDTAVYYCARHSGYERGYYYVMDYWGQGTLVTVSS VL: DIQLTQSPDSLSVSLGERATINCKASESVDYYGFSFLNWFQQKPGQPPKLLIYAASNRQSGVPDRFSGSGSGTDFTLTISSLQAEDVAVYFCQQSKEVPWTFGQGTKLEIKR",
    "Observed property": "Kd",
    "Value reported": 5.8
  }
]

Next binder, Kd to be filled in.
// query # lookup: Kd of Variant 7 (scFv, V domains shown) VH: EVKLLESGGGLVQPGGSLRLSCAASGFTFSSYTMSWVRQAPGKGLEWVSYISHGGGDTYYPDSVKGRFTISRDNSKNTLYLQMNSLRAEDTAVYYCARHSGYERGYYYVMDYWGKGTTVTVSS VL: DIVMTQSPDSLAVSLGERATINCKSSESVDYYGFSFLNWFQQKPGQPPKLLIYAASNRESGVPDRFSGSGSGTDFTLTISSLQAEDVAVYYCQQSKEVPWTFGQGTKLEIK
// result 0.67
